# PROCEDURE_TEXT: NCI Yeast Anticancer Drug Screen. Data for the rad50 strain (AID 155);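 further: 0% = growth of vehicle-only cultures of the same strain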
# TEST_PARAMETERS: S. cerevisiae rad50 strain growth inhibition; at 11.0 µM
About 79,000 compounds went through this panel and 15% of them were active in at least one assay; those are over-represented in the sample as a whole. Calls of active or inactive are those of the source. No stated cut-off is given here; in the data, active means growth inhibition above about 70%; inactive means the rest.
Would you mind answering with one of these outcomes? active, inactive

{"columns": ["COMPOUND", "GROUP_LABEL"],
 "data": [
  ["COC(=O)C1CCCCC1C(=O)Nc1ccccc1 (stereo unspecified)", "inactive"]
]}

[Q] Outcome logged for COC(=N)c1ccc(O)c(C)c1 in this assay:
[A] inactive

[Q] What is the recorded call for this compound in the test? Nc1cccc(-c2cc[cH-]c2)c1.[Fe+2].c1cc[cH-]c1
[A] inactive

====

# PROCEDURE_TEXT: NCI Yeast Anticancer Drug Screen. Data for the rad14 strain (AID 159);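 further: 0% = growth of vehicle-treated control cultures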
# TEST_PARAMETERS: S. cerevisiae rad14 strain growth inhibition; at 11.0 µM; active compounds read high
Compounds without any hit were thinned out: in the full panel of roughly 79,000, 15% have a hit.
MEASURED_ATTRIBUTE: growth inhibition (%)
Give bare numbers, in %.

Known growth inhibition results, listed for orientation:
{"columns": ["COMPOUND", "MEASURED_ATTRIBUTE", "ENDPOINT_UNIT", "QUANTITATIVE_RESULT"],
 "data": [
  ["CCCCCCCCSC1=C(Cl)C(=O)C(OC)=C(OC)C1=O", "growth inhibition", "%", -14],
  ["CCOc1ccc(N)c(S)c1", "growth inhibition", "%", 1],
  ["CCCCCCCCCCCCCCCCCCNC(=S)/N=C/c1c(O)c2ccccc2[nH]c1=O", "growth inhibition", "%", 0]
]}

Can you give me growth inhibition for all of these, one by one?
1. O=C1C(=C2CCCC2)CCC1CN1CCCCC1 (stereo unspecified)
2. O=C(O)c1cc2c(cc1S(=O)(=O)O)C1C(C3C2C2(Cl)C(Cl)=C(Cl)C3(Cl)C2(Cl)Cl)C2(Cl)C(Cl)=C(Cl)C1(Cl)C2(Cl)Cl (stereo unspecified)
3. O=C(NCCNCCNC(=O)c1cc(-c2ccccc2)nc2ccccc12)c1cc(-c2ccccc2)nc2ccccc12
4. Cc1nc2sc3c(c2c(=O)o1)CCCC3
5. COc1ccc(C(C)c2cc3c(cc2OCC(C)=O)OCO3)cc1 (stereo unspecified)
6. CCOC(=S)SSSC(=S)OCC
7. O=CC1(F)CC1(c1ccccc1)c1ccccc1 (stereo unspecified)

[A]
[29, 24, -2, 2, -3, 40, 2]

[Q] What value of measured growth inhibition is listed for CCN(CC)CCNc1ccc2ncn3c4ccc(O)cc4c(=O)c1c23 ?
[A] 3

====

Exercise: for every item that follows, state its recorded growth inhibition.
# PROCEDURE_TEXT: NCI Yeast Anticancer Drug Screen. Data for the rad18 strain (AID 177)
# TEST_PARAMETERS: S. cerevisiae rad18 mutant growth inhibition; at 3.7 µM; active compounds read high
This is part of a sample that, as a whole, favours compounds with a hit. Of some 79,000 tested, about 15% had one in any assay.
Answers are plain numbers, in %.

{"columns": ["COMPOUND", "ENDPOINT_UNIT", "growth inhibition"],
 "data": [
  ["CCCCN(CCCC)c1ccc(N=Nc2ccc(S(=O)(=O)O)cc2)cc1", "%", 0],
  ["O=C(O)CNC(c1ccccc1)(c1ccccc1)c1ccccc1", "%", -6],
  ["COc1ccc2nc(CCc3ccccc3)ccc2c1", "%", -12],
  ["CCCNCC(=O)O[C@]1(CC)C(=O)OCc2c1cc1n(c2=O)Cc2cc3ccccc3nc2-1", "%", 34],
  ["Cc1cc(C)c2[s+]snc2c1", "%", 9]
]}

# per-item lookup of growth inhibition; items listed below
1. CCCCCCCSCC1C(=O)C23C(O)C1CCC2C12COC3(O)C(O)C1C(C)(C)CCC2O (stereo unspecified)
2. CCC(/C=C/c1ccccc1)=N\Nc1ccc(Cl)c(Cl)c1

[A]
1. 2
2. 16

Hey, quick one: what's growth inhibition for each of these?
1. O=C1c2cccc3cccc(c23)C(=O)N1CCNCCN1C(=O)c2cccc3cccc(c23)C1=O
2. CCOP(=O)(OCC)/C(C#N)=C/c1cccc(Oc2ccccc2)c1
3. O=C(Nc1ccc(Cl)cc1)c1cc2cc(N=Nc3ccccc3Cl)ccc2oc1=O
4. O=P(C(=S)Nc1c(Cl)cccc1Cl)(c1ccccc1)c1ccccc1

[A]
[-2, -16, 24, -20]

====

# PROCEDURE_TEXT: NCI Yeast Anticancer Drug Screen. Data for the wt2 strain (AID 169);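 further: 0% = growth of vehicle-treated yeast cultures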
# TEST_PARAMETERS: S. cerevisiae wt2 strain growth inhibition; at 11.0 µM; active compounds read high
About 79,000 compounds went through this panel and 15% of them were active in at least one assay; those are over-represented in the sample as a whole. Residues, ends and D or L forms follow the SMILES beside them. *: point of attachment. Fmoc = O=C(OCC1c2ccccc2-c2ccccc21)*; Boc = CC(C)(C)OC(=O)*
For each of the compounds below, state its growth inhibition.
One number for each entry, in %.

Solved entries (count: 4):
{"columns": ["COMPOUND", "ENDPOINT_UNIT", "growth inhibition"],
 "data": [
  ["CC(=O)CC(c1ccccc1)c1c(O)c2ccccc2oc1=O (stereo unspecified)", "%", -13],
  ["O=C1NC(c2cccc(OCc3ccccc3)c2)Nc2ccccc21 (stereo unspecified)", "%", -7],
  ["CCN1CCC(O)(c2ccc(Oc3ccc(Cl)cc3)cc2)C(C(=O)c2ccc(Oc3ccc(Cl)cc3)cc2)C1 (stereo unspecified)", "%", 5],
  ["O=C1CCC(Cc2ccccc2)CN1 (stereo unspecified)", "%", 3]
]}

Take each entry in turn and give its growth inhibition.
1. CCC[CH2][Sn]([CH2]CCC)([CH2]CCC)/[C](=C/[Si](C)(C)c1ccccc1)c1ccc2c(c1)OCO2
2. CC1=NN(C(=O)CC(=O)NC(=O)/C=C\c2ccccc2)C(=O)C1N=Nc1ccc([N+](=O)[O-])cc1 (stereo unspecified)
3. CCN(CC)C(=S)SC(=S)N(CC)CC
4. CCCCCCC=C(C(=O)OCC)C(=O)OCC
5. COc1cc2c(cc1OC)[C@@H](Nc1ccc(C#N)cc1)C1COC(=O)[C@@H]1C2c1cc(OC)c(O)c(OC)c1 (stereo partly specified)
6. O=C1C2=C(c3ccccc31)C(c1ccccc1)N1C(=O)CSC1=N2 (stereo unspecified)
7. CCC[CH2][Ge]([CH2]CCC)([CH2]CCC)[O]C(=O)C(O)c1ccccc1 (stereo unspecified)

[A]
95
39
60
-5
46
28
16

Give me growth inhibition for each of these compounds, listed below.
1. NC(=S)N1N=C2c3ccccc3CC[C@@H]2[C@@H]1c1ccccc1
2. O=C1C(=C2CCCC2)CCC1CN1CCCCC1 (stereo unspecified)

[A]
-2
11

# per-item lookup of growth inhibition; items listed below
1. N#Cc1nc(Nc2ccc(Cl)cc2)sc1N
2. CC1CCN(CCC(=O)c2ccc([N+](=O)[O-])cc2)CC1
3. CC(C)OC(=O)NNc1cc(Cl)ccc1Cl
4. CC1CN(/N=C\c2ccc([N+](=O)[O-])o2)C(=O)O1 (stereo unspecified)
5. CC(C)(C)OC(=O)NCCCCC(NC(=O)C(Cc1c[nH]c2ccccc12)NC(=O)OCC1c2ccccc2-c2ccccc21)C(=O)O (stereo unspecified) (Fmoc-Trp-Lys(Boc)-OH; configuration not given here)
6. Cc1ccccc1NC(=O)c1c(C)oc2c1C(=O)c1ccccc1C2=O
7. CN(C)CCNC(=Cc1ccc2ccccc2[n+]1C)NCCN(C)C

[A]
-20
3
23
-3
-4
14
-2

[Q] What growth inhibition value was documented for this compound, Cc1ccc(Nc2n[nH]c(=S)s2)c(C)c1 ?
[A] -10

====

# PROCEDURE_TEXT: NCI Yeast Anticancer Drug Screen. Data for the wt2 strain (AID 169);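 further: 0% = growth of vehicle-treated yeast cultures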
# TEST_PARAMETERS: S. cerevisiae wt2 strain growth inhibition; at 11.0 µM; active compounds read high
The panel holds about 79,000 compounds, 15% with a hit somewhere; the sample as a whole holds those more often.
MEASURED_ATTRIBUTE: growth inhibition (%)
Numbers only, in %.

{"columns": ["MOLECULE", "growth inhibition [%]"],
 "data": [
  ["CCOC(=O)/C(=C\\c1cccc(C)c1)C(C)=O", 69]
]}

Working through the 5 molecules below one at a time, give growth inhibition for each.
1. CC1=CN2C(c3ccccc3)=NON(c3ccc(C)cn3)C2C=C1 (stereo unspecified)
2. COc1cc(C2C3=C(COC3=O)Oc3cc4c(cc32)OCO4)cc(OC)c1O (stereo unspecified)
3. Clc1ccc(/C(=C\c2ccccc2)Cn2ccnc2)cc1
4. O=C(CCCN1CCC(Nc2ccc(F)cc2)(c2nnnn2C2CCCCC2)CC1)c1ccc(F)cc1
5. CSc1nc(-c2ccccc2)nc(=[N+]2CCOCC2)s1

[A]
1: -10; 2: 5; 3: 46; 4: -9; 5: 37
